Molecular target: TEAD2 (Homo sapiens (Human), UniProt Q15562)
Sequence (Q15562 whole entry): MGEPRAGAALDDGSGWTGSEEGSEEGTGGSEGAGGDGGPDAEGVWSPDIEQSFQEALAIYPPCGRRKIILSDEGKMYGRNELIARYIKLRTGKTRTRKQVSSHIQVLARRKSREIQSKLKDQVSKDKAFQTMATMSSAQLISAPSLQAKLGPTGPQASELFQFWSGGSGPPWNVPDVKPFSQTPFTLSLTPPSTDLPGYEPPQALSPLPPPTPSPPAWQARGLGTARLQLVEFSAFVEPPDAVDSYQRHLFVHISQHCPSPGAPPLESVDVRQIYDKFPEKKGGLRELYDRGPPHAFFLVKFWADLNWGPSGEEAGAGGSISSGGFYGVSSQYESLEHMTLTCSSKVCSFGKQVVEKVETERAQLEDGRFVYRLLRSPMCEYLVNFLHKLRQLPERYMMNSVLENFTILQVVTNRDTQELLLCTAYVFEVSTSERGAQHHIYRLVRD
Test: In vitro palmitoylation (TEAD2 autopalmitoylation, streptavidin blot)
Type: biochemical
Settings: compound at 10 μM; Table 2
assay-endpoint: inhibition at 10 µM (%)
# number only, unit % dropped from output

So what does the record say about inhibition at 10 µM for O=C(O)c1ccccc1Nc1cnc(Nc2ccc(C34CC5CC(CC(C5)C3)C4)cc2Cl)cn1 [compound 283] ?
99

Given O=C(O)C1=C(C(=O)Nc2ccc(Nc3ccc(C45CC6CC(CC(C6)C4)C5)cc3Cl)cc2)CCC1 [compound 290] , state its recorded inhibition at 10 µM.
69

Any idea what inhibition at 10 µM was measured for O=C(O)c1cccc2nc(-c3cccc(C45CC6CC(CC(C6)C4)C5)c3)[nH]c12 [Compound 97] ?
60

Suppose we examine the compound Clc1cc(C23CC4CC(CC(C4)C2)C3)ccc1Nc1ccc(Cn2ccnc2)cc1 [Compound 105] ; what inhibition at 10 µM value has been reported?
96

###

Provide the reported % of inhibition of TEAD2 palmitoylation at 10 μM of each item.
Molecular target: TEAD2 (Homo sapiens (Human))
Assay: In vitro palmitoylation (TEAD2 autopalmitoylation, streptavidin blot)
Assay type: biochemical
Details: compound at 10 μM; Table 2

What value of % of inhibition of TEAD2 palmitoylation at 10 μM has been reported for the following compound? "O=C(NC12CC3CC(CC(C3)C1)C2)c1ccc(Nc2ccc(Nc3ccccc3C(=O)O)cc2)cc1"
89%

Entry O=C(O)C1CCCC1Nc1ccc(Nc2ccc(C34CC5CC(CC(C5)C3)C4)cc2Cl)cc1 (stereo not drawn) : reported % of inhibition of TEAD2 palmitoylation at 10 μM = ?
43%

Look up % of inhibition of TEAD2 palmitoylation at 10 μM for this compound: "O=C(Nc1ccc(C23CC4CC(CC(C4)C2)C3)cc1Cl)c1ccc(Nc2ncccc2C(=O)O)cc1"
96%

###

Biological target: TEAD2 (Homo sapiens (Human), UniProt Q15562)
Test: CMP assay (CPM fluorescence detection of free CoA)
Assay type: biochemical
Details: Table 2; read-out: IC50 μM (CMP assay)
Assign IC50 to each entry below.
Record the value in µM, omitting the unit from your answer.

I'm curious: which IC50 was measured for "CN(c1ccc(Nc2ccc(C34CC5CC(CC(C5)C3)C4)cc2Cl)cc1)c1ncccc1C(=O)O" tested on TEAD2 (Homo sapiens (Human), UniProt Q15562)?
0.771

Find the measured IC50: item "CN(c1ccc(Oc2ccc(C34CC5CC(CC(C5)C3)C4)cc2Cl)cc1)c1ccccc1C(=O)O" , target or system TEAD2 (Homo sapiens (Human), UniProt Q15562).
0.173

Give recorded IC50 with TEAD2 (Homo sapiens (Human), UniProt Q15562) for the following compound: "O=C(O)c1ccccc1Nc1ccc(Nc2ccc(C34CC5CC(CC(C5)C3)C4)cc2Cl)cc1"
0.377

Entry "CN(c1ccc(N(C)c2ncccc2C(=O)O)cc1)c1ccc(C23CC4CC(CC(C4)C2)C3)cc1" , system TEAD2 (Homo sapiens (Human), UniProt Q15562): what IC50 was measured?
0.312

Fill in the recorded IC50 for this compound, with TEAD2 (Homo sapiens (Human), UniProt Q15562) as test system: "CN(c1ccc(N(C)c2ccccc2C(=O)O)cc1)c1ccc(C23CC4CC(CC(C4)C2)C3)cc1"
0.207

TEAD2 (Homo sapiens (Human), UniProt Q15562) / IC50 / "CN(c1ccc(N(C)c2ncccc2C(=O)O)cc1)c1ccc(C23CC4CC(CC(C4)C2)C3)cc1Cl" : value?
0.346

Lab request: please report IC50 under test system TEAD2 (Homo sapiens (Human), UniProt Q15562) for "CC12CC3CC(C)(C1)CC(c1ccc(Oc4ccc(Nc5ncccc5C(=O)O)cc4)c(Cl)c1)(C3)C2"
0.297

Lab request: please report IC50 under test system TEAD2 (Homo sapiens (Human), UniProt Q15562) for "CN(c1ccc(N(C)c2ccccc2C(=O)O)cc1)c1ccc(C23CC4CC(C)(CC(C)(C4)C2)C3)cc1"
0.227

TEAD2 (Homo sapiens (Human), UniProt Q15562) / IC50 / "COc1ccc(Nc2ccc(N(C)c3ccc(C45CC6CC(CC(C6)C4)C5)cc3)cc2)c(C(=O)O)c1" : value?
0.274

Record lookup: for TEAD2 (Homo sapiens (Human), UniProt Q15562), what IC50 belongs to "CC12CC3CC(C)(C1)CC(c1ccc(Oc4ccc(Nc5ccccc5C(=O)O)cc4)c(Cl)c1)(C3)C2" ?
0.099

###

Biological target: TEAD2 (Homo sapiens (Human), UniProt Q15562)
Test: In vitro palmitoylation (TEAD2 autopalmitoylation, streptavidin blot)
Type: biochemical
Conditions: compound at 10 μM; Table 2
Record form. Attribute: inhibition at 10 µM. Fill in for each entry.

Please report the recorded inhibition at 10 µM for "O=C(O)c1ccccc1Nc1ncc(Nc2ccc(C34CC5CC(CC(C5)C3)C4)cc2Cl)cn1" .
14%

Entry "Clc1cc(C23CC4CC(CC(C4)C2)C3)ccc1Nc1ccc(Nc2ccccn2)cc1" has what inhibition at 10 µM?
0%

Report inhibition at 10 µM for "COc1ccc(Nc2ccc(N(C)c3ccc(C(F)(F)F)cc3)cc2)c(C(=O)N(C)C)c1" please.
37%

Requested read-out: inhibition at 10 µM. Entry: "CC12CC3CC(C)(C1)CC(c1ccc(NC(=O)c4cccc(Nc5ncccc5C(=O)O)c4)c(Cl)c1)(C3)C2"
85%

Give the measured inhibition at 10 µM of "CC12CC3CC(C)(C1)CC(c1ccc(NS(=O)(=O)c4ccc(Nc5ccccc5C(=O)O)cc4)c(Cl)c1)(C3)C2" .
0%

What value of measured inhibition at 10 µM is listed for "O=C(O)c1cccnc1Nc1ccc(S(=O)(=O)Nc2ccc(C34CC5CC(CC(C5)C3)C4)cc2Cl)cc1" ?
98%

Please give the measured inhibition at 10 µM for this compound: "NC(=O)c1ccccc1Nc1ccc(Nc2ccc(C34CC5CC(CC(C5)C3)C4)cc2Cl)cc1"
77%

Please report the recorded inhibition at 10 µM for "O=C(O)c1ccccc1Nc1ccnc(Nc2ccc(C34CC5CC(CC(C5)C3)C4)cc2Cl)n1" .
65%

Fill in: inhibition at 10 µM of "COC(=O)c1ccccc1Nc1cc(Nc2ccc(C34CC5CC(CC(C5)C3)C4)cc2)cc(C(F)(F)F)c1" is ___
0%

Could you tell me which inhibition at 10 µM is on file for "O=C(O)c1ccncc1Nc1ccc(Nc2ccc(C34CC5CC(CC(C5)C3)C4)cc2Cl)cc1" ?
65%

Data request, read-out inhibition at 10 µM, for O=C(O)C1CCCN(Cc2ccc(Nc3ccc(C45CC6CC(CC(C6)C4)C5)cc3Cl)cc2)C1 (stereo not drawn)
22%

Which inhibition at 10 µM reading was recorded for the compound "O=C(O)c1cccc(Nc2cc(Nc3ccc(C45CC6CC(CC(C6)C4)C5)cc3Cl)cc(C(F)(F)F)c2)n1" ?
100%

Param item = "COC(=O)c1ccccc1Nc1ccc(C(=O)Nc2ccc(C34CC5CC(CC(C5)C3)C4)cc2Br)cc1" ; retrieve measured inhibition at 10 µM.
0%

Can you look up the measured inhibition at 10 µM of "O=C(O)c1ncccc1Nc1ccc(Nc2ccc(C34CC5CC(CC(C5)C3)C4)cc2Cl)cc1" for me?
67%

Data request, read-out inhibition at 10 µM, for "O=C(O)c1ccccc1Nc1cccc(Nc2ccc(C34CC5CC(CC(C5)C3)C4)cc2)c1"
90%

// returns reported inhibition at 10 µM for input "O=C(NC12CC3CC(CC(C3)C1)C2)c1ccc(Nc2ccccc2C(=O)O)cc1"
43%

Suppose we examine the compound "CCCCN(CCCC)C(=O)c1ccc(Nc2ccc(Nc3ccccc3C(=O)O)cc2)cc1" ; what inhibition at 10 µM value has been reported?
70%

State the recorded inhibition at 10 µM for this entry: "CCOC(=O)/C=C/c1ccccc1Nc1ccc(Nc2ccc(C34CC5CC(CC(C5)C3)C4)cc2)cc1"
0%

Which inhibition at 10 µM is listed for "O=C(O)c1ccccc1Nc1cnc(Oc2ccc(C34CC5CC(CC(C5)C3)C4)cc2Cl)cn1" ?
75%

Look up inhibition at 10 µM for this compound: "O=C(O)c1cccnc1Nc1ccc(C23CC4CC(CC(C4)C2)C3)cc1Br"
90%

Reported inhibition at 10 µM, compound "CN(c1ccc(Nc2ccc(C34CC5CC(CC(C5)C3)C4)cc2)cc1)c1ncccc1C(=O)O" : ____
24%

Please look up its inhibition at 10 µM: "O=S1(=O)N=C(Nc2ccc(Nc3ccc(C45CC6CC(CC(C6)C4)C5)cc3Cl)cc2)c2ccccc21"
35%

// query inhibition at 10 µM value for entry "Cc1cc(C23CC4CC(CC(C4)C2)C3)cc(C)c1Nc1ccc(Nc2ccccc2C(=O)O)cc1"
45%

Look at this compound and give its reported inhibition at 10 µM. "O=C(O)c1cccnc1Nc1ccc(S(=O)(=O)Nc2ccc(C34CC5CC(CC(C5)C3)C4)cc2)cc1"
101%

// query inhibition at 10 µM value for entry "CN(c1ccc(N(c2ccc(C(=O)O)cn2)c2ccc(C(=O)O)cn2)cc1)c1ccc(C23CC4CC(CC(C4)C2)C3)cc1"
99%

Record request: inhibition at 10 µM value, item "CCCCN(c1ccccc1)c1ccc(Nc2ccc(Nc3ccccc3C(=O)O)cc2)c(Cl)c1"
0%

Given the compound "CN(c1ccc(N(C)c2ccc(C34CC5CC(CC(C5)C3)C4)cc2)c(C(F)(F)F)c1)c1ccccc1C(=O)O" , what is its reported inhibition at 10 µM?
100%

Entry "O=C(NC12CC3CC(CC(C3)C1)C2)c1ccc(Nc2ccc(Nc3cccc(C(=O)O)n3)cc2)cc1" has what inhibition at 10 µM?
0%

Look at this compound and give its reported inhibition at 10 µM. "COCCOc1ccc(Nc2ccc(N(C)c3ccc(C45CC6CC(CC(C6)C4)C5)cc3)cc2)c(C(=O)O)c1"
100%

Form field: reported inhibition at 10 µM of "Clc1cc(C23CC4CC(CC(C4)C2)C3)ccc1Nc1ccc(Cn2cncn2)cc1"
76%
